Origin of measurements: patent US20150368338A1

Task for the reader: assign each of the following binders its reported Kd.
Target: T1, IFN-αWA (human, UniProt P05015 24-189)
T1 construct: Recombinant, HEK293; also called IFN-α16
Test: ProteOn SPR, cell supernatant;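 also: each binding measurement used just a single antigen concentration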
Please answer in the form of a number followed by its unit of measurement.

These recorded examples may help you get a feel for the data.
binder	property_name	result
IFWM3392 (antibody, IgG1, V domains shown, mAb; IgG1/kappa said of the parent and of selected mAbs; also called IFWB3127) VH: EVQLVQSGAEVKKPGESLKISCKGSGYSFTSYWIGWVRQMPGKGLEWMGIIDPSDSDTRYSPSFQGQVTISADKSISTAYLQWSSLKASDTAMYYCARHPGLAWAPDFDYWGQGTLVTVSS VL: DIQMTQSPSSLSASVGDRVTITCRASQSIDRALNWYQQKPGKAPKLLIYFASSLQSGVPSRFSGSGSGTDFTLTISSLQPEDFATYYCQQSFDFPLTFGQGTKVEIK	Kd	0.025 nM
IFWM3411 (antibody, IgG1, V domains shown, mAb; IgG1/kappa said of the parent and of selected mAbs; also called IFWB3146) VH: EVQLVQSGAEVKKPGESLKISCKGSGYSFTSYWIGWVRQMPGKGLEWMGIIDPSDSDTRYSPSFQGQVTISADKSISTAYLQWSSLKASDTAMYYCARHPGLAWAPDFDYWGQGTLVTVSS VL: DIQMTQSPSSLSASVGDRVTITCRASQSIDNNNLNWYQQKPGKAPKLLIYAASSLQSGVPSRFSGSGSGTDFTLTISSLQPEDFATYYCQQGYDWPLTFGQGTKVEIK	Kd	0.087 nM
IFWM3395 (antibody, IgG1, V domains shown, mAb; IgG1/kappa said of the parent and of selected mAbs; also called IFWB3130) VH: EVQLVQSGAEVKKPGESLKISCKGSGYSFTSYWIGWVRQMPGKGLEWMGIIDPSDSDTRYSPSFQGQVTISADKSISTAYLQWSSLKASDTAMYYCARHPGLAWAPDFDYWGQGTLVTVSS VL: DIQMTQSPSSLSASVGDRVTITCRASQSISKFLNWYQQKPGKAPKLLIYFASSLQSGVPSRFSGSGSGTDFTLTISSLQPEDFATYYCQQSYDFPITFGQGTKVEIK	Kd	0.063 nM
IFWM3379 (antibody, IgG1, V domains shown, mAb; IgG1/kappa said of the parent and of selected mAbs; also called IFWB3114) VH: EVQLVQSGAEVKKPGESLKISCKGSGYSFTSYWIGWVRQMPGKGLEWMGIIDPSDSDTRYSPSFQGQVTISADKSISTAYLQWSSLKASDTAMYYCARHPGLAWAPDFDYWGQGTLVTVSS VL: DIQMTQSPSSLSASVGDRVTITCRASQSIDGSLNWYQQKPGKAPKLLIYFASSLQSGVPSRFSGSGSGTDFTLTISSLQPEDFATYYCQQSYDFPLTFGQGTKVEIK	Kd	0.023 nM

Consider now this further binder.
**Q:** Query (binder): IFWM3416 (antibody, IgG1, V domains shown, mAb; IgG1/kappa said of the parent and of selected mAbs; also called IFWB3151) VH: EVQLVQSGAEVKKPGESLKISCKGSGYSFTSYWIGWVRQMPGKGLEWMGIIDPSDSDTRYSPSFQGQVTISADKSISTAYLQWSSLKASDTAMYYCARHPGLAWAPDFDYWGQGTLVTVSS VL: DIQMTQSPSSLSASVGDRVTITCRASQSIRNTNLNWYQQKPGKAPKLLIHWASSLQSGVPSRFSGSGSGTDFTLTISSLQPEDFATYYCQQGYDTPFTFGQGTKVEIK ; field requested: Kd
**A:** 0.069 nM
